Measured values drawn from patent US12516041B2 for this set.

test description: Solubility test in bio-relevant media (SGF, FeSSIF, FaSSIF), HPLC of filtrate, XRPD of filter cake
Type: physicochemical
measurement parameters: FeSSIF, 37 °C, pH 4.99, fessif, thermodynamic from solid, FeSSIF, 2 h, read-out: Solubility (μg/mL) 2 h
metric name: solubility at 2 h (µg/mL)

>>> result_value("O=C(O)c1ccc2nc(Cc3ccc(-c4cccc(OCc5ccc(Cl)cc5F)n4)cc3F)n(C[C@@H]3CCO3)c2c1 [Free Acid Form I]")
17
